Provide the reported [3H]amantadine uptake, % of Control, TR-iBRB2 of each item.
system: TR-iBRB2 cells; experiment: Effect of compounds on [3H]amantadine uptake by TR-iBRB2 cells; type: in vitro ADME, rat; conditions: compound 0.2 mM; [3H]amantadine 1.67 µM, 3 min, 37 °C

Worked set:
compound: C[N+](C)(C)C[C@H](O)CC(=O)[O-]
reported result: 111 ± 35 % of Control
--
compound: CC(=O)Nc1nnc(S(N)(=O)=O)s1 [Acetazolamide]
reported result: 90.9 ± 3.8 % of Control
--
compound: CCN1/C(=C/c2ccc3ccccc3[n+]2CC)C=Cc2ccccc21.[I-]
reported result: 106 ± 31 % of Control
--
compound: CNCCCN1c2ccccc2CCc2ccccc21
reported result: 7.05 ± 0.57 % of Control
--
compound: C=C[C@H]1C[N@@]2CC[C@H]1C[C@@H]2[C@@H](O)c1ccnc2ccc(OC)cc12
reported result: 13.7 ± 1.8 % of Control

I'm hoping you can list [3H]amantadine uptake, % of Control, TR-iBRB2 for every compound here, please.
1. CC(C)NCC(O)COc1cccc2ccccc12 (stereo not drawn)
2. C[n+]1ccc(-c2ccccc2)cc1
3. O=C(O)[C@H](O)[C@@H](O)[C@H](O)[C@H](O)CO [Gluconate]
4. CC(C)(C)NC[C@H](O)COc1nsnc1N1CCOCC1

Result:
1. 8.61 ± 0.75 % of Control
2. 106 ± 31 % of Control
3. 91.7 ± 21.7 % of Control
4. 34.6 ± 10.6 % of Control

---

system: TR-iBRB2 cells; assay: Effect of compounds on [3H]amantadine uptake by TR-iBRB2 cells; assay type: in vitro ADME, rat; conditions: Rattus norvegicus, 0.05 h, read-out: [3H]amantadine uptake, % of Control, TR-iBRB2
Reported activity at 200 µM maps to class as: A: < 20%; B: ≥ 20% and < 90%; C: ≥ 90%

Below, 2 compounds whose answers are already recorded.
compound: Clc1cccc(Cl)c1N=C1NCCN1
target system: TR-iBRB2 cells
class label: B
--
compound: CCc1nc(N)nc(N)c1-c1ccc(Cl)cc1
target system: TR-iBRB2 cells
class label: B

Request: Which class holds `CN(C)CCCN1c2ccccc2CCc2ccccc21` ?
Result: A

Request: Same lookup for `COc1ccc(CN(CCN(C)C)c2ccccn2)cc1` , please.
Result: B

Request: Next compound up: `C[N+](C)(C)CCO`
Result: C

Request: Could you do the same for `NC12CC3CC(CC(C3)C1)C2` , please?
Result: B

Request: Okay, and `Nc1ccc(C(=O)NCC(=O)O)cc1` ?
Result: B

Request: Please answer likewise for CC12CC3CC(C)(C1)CC(N)(C3)C2 [Memantine]
Result: A

Request: Same again, this time with `NCCc1c[nH]c2ccc(O)cc12`
Result: C
